Reported normalized growth values for the following compounds.
protocol notes: chemical genetic growth profiling, strain panel (AID 1159580);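 note: tested at 20 µM; growth read once vehicle control cultures reached saturation at 30 °C; 1 = growth at the plate median or of vehicle wells; lower values mean less growth of the strain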
condition summary: S. cerevisiae deletion strains, growth OD, locus YPL240C, strain hsp82, hits give low values
About 2,000 (36%) of roughly 5,500 compounds were called active. Inconclusive results (about 18%) are left out. The list shows a part of the results.
// no unit, no text: just the number

compound	normalized growth
CC(=O)OCC(=O)[C@@]12OC(C)(C)O[C@@H]1CC1C3C[C@H](F)C4=CC(=O)C=C[C@]4(C)[C@@]3(F)[C@@H](O)C[C@@]12C (stereo partly specified)	1.01

Prompt line: What value of normalized growth has been reported for the following compound? c1ccc(-c2ccc(C(c3ccccc3)n3ccnc3)cc2)cc1 (stereo unspecified)
Response line: 0.0631

Prompt line: What value of normalized growth has been reported for the following compound? Cc1ccc(C(C)C)cc2c(C)ccc1-2
Response line: 0.999

Prompt line: What value of normalized growth has been reported for the following compound? NCCCCN=C(N)N
Response line: 1.02

Prompt line: What value of normalized growth has been reported for the following compound? CC1(C)C2CC(=O)O[C@@]3(C)C4=CC(=O)O[C@@H](c5ccoc5)[C@]4(C)CCC3[C@@]2(C)C=C[C@H]1O (stereo partly specified)
Response line: 0.967

Prompt line: What value of normalized growth has been reported for the following compound? COc1ccc(/C=C/C(=O)O)cc1OC
Response line: 0.986

====

protocol notes: chemical genetic growth profiling, strain panel (AID 1159580)
condition summary: S. cerevisiae deletion strains, growth OD, locus YKL203C, strain TOR2
In all, about 5,500 compounds went through this assay and about 2,000 (36%) were called active. Another 18% or so got no clear call; they are omitted. Cut-off read from the data, not from the text of the source: active = normalized growth mostly below about 0.91 (no sharp cut-off); inconclusive = no clear call, values can overlap the other calls; inactive = mostly above about 0.92. Some of the results follow.
Output constraint: value belongs to true (active), false (inactive)

molecule	class name
CSc1c(C#N)c(-c2ccc(Cl)cc2)nn1C(=O)c1ccccc1Cl	false

Prompt line: Called result for COc1cc(C(=O)Oc2c(Cl)cc(Cl)cc2C=Nc2cccc(C(F)(F)F)c2)cc(OC)c1OC
Response line: true

Prompt line: Called result for CSc1cccc(N2C(=O)CC(c3c(Cl)cccc3Cl)CC2=O)c1
Response line: false

Prompt line: Called result for CCOC(=O)CCc1cc(N=Cc2cc(Br)ccc2O)c(O)c(N=Cc2cc(Br)ccc2O)c1
Response line: false

Prompt line: Called result for CC(C)(O)C#Cc1ccc(/C=N\Nc2ccccc2)cc1
Response line: false

Prompt line: Called result for O=S(=O)(Nc1cc(C(F)(F)F)ccc1F)c1cc(C(F)(F)F)ccc1Cl
Response line: false

Prompt line: Called result for Cc1cc(C(=O)O/N=C(/N)c2ccc(C(C)(C)C)cc2)no1
Response line: false

====

protocol notes: chemical genetic growth profiling, strain panel (AID 1159580)
condition summary: S. cerevisiae deletion strains, growth OD, locus YOR061W, strain CKA2, hits give low values
Hit rate of the full screen: of about 5,500 compounds, about 2,000 (36%) were called active. Not shown: some 18% with an inconclusive outcome. This is one part of the list.
Reported normalized growth values for the following compounds.
// no unit, no text: just the number

Example cases with answers are listed next.
compound	normalized growth
COc1cc(C(=O)Oc2c(Cl)cc(Cl)cc2C=Nc2cccc([N+](=O)[O-])c2)cc(OC)c1OC	0.576
NC(=O)c1cnccn1	1
O=C(O)CCCCCCCCCCCCC1C=CCC1 (stereo not drawn)	0.987
COCCOc1ccccc1NC(=S)SCCSC(=S)Nc1ccccc1OCCOC	0.92
CO[C@@H]1[C@@H](O[C@@H]2O[C@H](C)[C@@H](O[C@H]3C[C@@](C)(O)[C@H](O)[C@H](C)O3)[C@H](N(C)C)[C@H]2O)[C@@H](CC=O)C[C@@H](C)[C@@H](O[C@H]2CC[C@H](N(C)C)[C@@H](C)O2)/C=C/C=C/C[C@H](C)OC(=O)C[C@H]1O	1.01

Prompt line: What value of normalized growth has been reported for the following compound? C=CC1=C(C)/C(=C/c2[nH]c(Cc3[nH]c(/C=C4\NC(=O)C(C)=C4C=C)c(C)c3CCC(=O)O)c(CCC(=O)O)c2C)NC1=O
Response line: 1.03

Prompt line: What value of normalized growth has been reported for the following compound? CCOC(=O)CCCCCCCCCCCCC1C=CCC1 (stereo not drawn)
Response line: 0.0461

Prompt line: What value of normalized growth has been reported for the following compound? CC(=O)OCC(=O)[C@@]12OC(C)(C)O[C@@H]1CC1C3C[C@H](F)C4=CC(=O)C=C[C@]4(C)[C@@]3(F)[C@@H](O)C[C@@]12C (stereo partly drawn)
Response line: 1.01

====

protocol notes: chemical genetic growth profiling, strain panel (AID 1159580)
condition summary: S. cerevisiae deletion strains, growth OD, locus YNL207W, strain RIO2, hits give low values
The whole screen tested about 5,500 compounds, of which about 2,000 (36%) were called active. Roughly 18% stayed inconclusive and do not appear here. This is one part of the list.
Reported normalized growth values for the following compounds.
// no unit, no text: just the number

compound	normalized growth
CCc1cc2c(cc1-c1csc(C/C(N)=N\O)n1)C(C)(C)CCC2(C)C	0.964
CCCCCc1ccc(S(=O)(=O)Nc2ccc3c(c2)C(=O)OC3)cc1	0.967
CSc1cccc(N2C(=O)CC(c3c(Cl)cccc3Cl)CC2=O)c1	0.993
CC12CC[C@@H](O)CC1=CC[C@@H]1C2CCC2(C)C(=O)CC[C@@H]12 (stereo not given in full)	1.01

Now for the compound whose normalized growth we want.
Prompt line: What value of normalized growth has been reported for the following compound? COc1ccccc1NC(=O)Nc1nn(C)c2cccc(OC)c12
Response line: 0.91

====

protocol notes: chemical genetic growth profiling, strain panel (AID 1159580)
condition summary: S. cerevisiae deletion strains, growth OD, locus YPL055C, strain LGE1, hits give low values
Screen size: about 5,500 compounds; about 2,000 (36%) were called active. About 18% were inconclusive and are not listed. Some of the results follow.
Binary call on normalized growth with cut-off 1: strictly below means true (1), and equality or higher means false (0).

smiles input	class name
COc1ccc(/C=C/c2cc(O)cc(O[C@@H]3O[C@H](CO)[C@@H](O)[C@H](O)[C@H]3O)c2)cc1O	false (0)
CC(C)(C)OC(=O)N1CCN(Cc2ccccc2)CC1	false (0)
O=C1O[C@@H](CO)[C@H](O)[C@@H](O)[C@@H]1O	true (1)

Now consider the entry below.
Prompt line: Lab note: confirm whether the reported normalized growth for this compound is below 1, equality not counting. compound: Cc1onc(-c2ccccc2Cl)c1C(=O)Nc1ccc2c(c1)OCO2
Response line: true (1)

====

protocol notes: chemical genetic growth profiling, strain panel (AID 1159580);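 note: tested at 20 µM; growth read once vehicle control cultures reached saturation at 30 °C; 1 = growth at the plate median or of vehicle wells; lower values mean less growth of the strain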
condition summary: S. cerevisiae deletion strains, growth OD, locus YDL035C, strain GPR1, hits give low values
Among all 5,500 compounds or so, about 2,000 (36%) were called active. About 18% were inconclusive and are not listed. Some of the results follow.
Binary call on normalized growth with cut-off 1: strictly below means t, and equality or higher means f.

compound	class name
Nc1nc(N)c2nc(CNc3ccc(C(=O)NC(CCC(=O)O)C(=O)O)cc3)cnc2n1 (stereo not drawn)	f
CC1(C)C2CC(=O)O[C@@]3(C)C4=CC(=O)O[C@@H](c5ccoc5)[C@]4(C)CCC3[C@@]2(C)C=C[C@H]1O (stereo partly drawn)	f
CN(C)CCCO[C@H]1[C@@H](C(O)CO)OC2OC(C)(C)O[C@@H]21 (stereo partly drawn)	t

Now consider the entry below.
Prompt line: Lab note: confirm whether the reported normalized growth for this compound is below 1, equality not counting. compound: COc1ccccc1-c1cc(=O)c2cccc(OC)c2o1
Response line: t

====

protocol notes: chemical genetic growth profiling, strain panel (AID 1159580);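 note: tested at 20 µM; growth read once vehicle control cultures reached saturation at 30 °C; 1 = growth at the plate median or of vehicle wells; lower values mean less growth of the strain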
condition summary: S. cerevisiae deletion strains, growth OD, locus YBR021W, strain FUR4, hits give low values
Out of some 5,500 compounds screened, about 2,000 (36%) were called active. Another 18% or so got no clear call; they are omitted. Some of the results follow.
Reported normalized growth values for the following molecules.
// no unit, no text: just the number

Example cases with answers are listed next.
molecule	normalized growth
O=C1O[C@@H](CO)[C@H](O)[C@@H](O)[C@@H]1O	0.999
CC1(C)CC2C1CCC1(C)OC1CCC2(C)O (stereo not given)	1.01
CCOC(=O)c1ccc(N)cc1	0.998
COc1c(C(=O)O)ccc2c1CCC(C)(C)O2	1.03

Now for the molecule whose normalized growth we want.
Prompt line: What value of normalized growth has been reported for the following molecule? CC1CC2C(C(O)CC3(C)C2CCC3(O)C(=O)COC(=O)CCC(=O)O)C2(C)C=CC(=O)C=C12 (stereo not given)
Response line: 1.08

====

Reported normalized growth values for the following compounds.
protocol notes: chemical genetic growth profiling, strain panel (AID 1159580);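 note: tested at 20 µM; growth read once vehicle control cultures reached saturation at 30 °C; 1 = growth at the plate median or of vehicle wells; lower values mean less growth of the strain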
condition summary: S. cerevisiae deletion strains, growth OD, locus YMR001C, strain CDC5, hits give low values
The campaign covered roughly 5,500 compounds. About 2,000 (36%) were called active. About 18% were inconclusive and are not listed. The list shows a part of the results.

Example cases with answers are listed next.
smiles input	normalized growth
CC1(C)C/C(=N/Nc2ccc(C(F)(F)F)cc2)c2cc(C(C)(C)C)c(O)c(O)c2O1	0.98 (inactive)
COc1cc(N=Cc2cc(Cl)cc(Cl)c2OC(=O)c2cc(OC)c(OC)c(OC)c2)c(OC)cc1Cl	0.963 (inactive)
CCOC(=O)CCc1cc(N=Cc2cc(Br)ccc2O)c(O)c(N=Cc2cc(Br)ccc2O)c1	0.961 (inactive)

Now for the compound whose normalized growth we want.
Prompt line: What value of normalized growth has been reported for the following compound? O=C1/C(=C/c2c(F)cccc2Cl)Cc2ccccc21
Response line: 0.961 (inactive)
